This listing pairs molecules with measured Population Mitochondria Different-Phenotype (%).
system: U2OS; test: Multiplex assay against U2OS; assay type: toxicity, cell-based; details: human, 12 h, 10 µM, compound concentration 10 uM, replicate 1
State just the number; it will be interpreted in %.

Worked cases, Population Mitochondria Different-Phenotype (%) given:
| smiles.string | scale.unit | result.number |
| --- | --- | --- |
| COc1cc2nc(N3CCN(C(=O)COc4c(OC)cccc4C(C)C)CC3)nc(N)c2cc1OC.Cl.Cl | % | 55 |
| COc1c(Nc2ccc(S(C)(=O)=O)nc2C)ncnc1OC1CCN(C(=O)OC(C)C)CC1 | % | 2 |
| O=C(Nc1cc(-c2ccccc2)nn1-c1ccccc1F)c1ccc([N+](=O)[O-])cc1 | % | 5 |

Could you now consider this next molecule?
Per the records, this molecule ( `Cc1cc(NC(=O)NCCN2CCC(O)(Cc3ccccc3)CC2)c2ccccc2n1` ) has Population Mitochondria Different-Phenotype (%) equal to 1
